# system: human GR (Homo sapiens, UniProt P04150)
# Construct: SW1353 naturally expresses human GR; endogenous in cells
# Sequence (P04150 whole entry): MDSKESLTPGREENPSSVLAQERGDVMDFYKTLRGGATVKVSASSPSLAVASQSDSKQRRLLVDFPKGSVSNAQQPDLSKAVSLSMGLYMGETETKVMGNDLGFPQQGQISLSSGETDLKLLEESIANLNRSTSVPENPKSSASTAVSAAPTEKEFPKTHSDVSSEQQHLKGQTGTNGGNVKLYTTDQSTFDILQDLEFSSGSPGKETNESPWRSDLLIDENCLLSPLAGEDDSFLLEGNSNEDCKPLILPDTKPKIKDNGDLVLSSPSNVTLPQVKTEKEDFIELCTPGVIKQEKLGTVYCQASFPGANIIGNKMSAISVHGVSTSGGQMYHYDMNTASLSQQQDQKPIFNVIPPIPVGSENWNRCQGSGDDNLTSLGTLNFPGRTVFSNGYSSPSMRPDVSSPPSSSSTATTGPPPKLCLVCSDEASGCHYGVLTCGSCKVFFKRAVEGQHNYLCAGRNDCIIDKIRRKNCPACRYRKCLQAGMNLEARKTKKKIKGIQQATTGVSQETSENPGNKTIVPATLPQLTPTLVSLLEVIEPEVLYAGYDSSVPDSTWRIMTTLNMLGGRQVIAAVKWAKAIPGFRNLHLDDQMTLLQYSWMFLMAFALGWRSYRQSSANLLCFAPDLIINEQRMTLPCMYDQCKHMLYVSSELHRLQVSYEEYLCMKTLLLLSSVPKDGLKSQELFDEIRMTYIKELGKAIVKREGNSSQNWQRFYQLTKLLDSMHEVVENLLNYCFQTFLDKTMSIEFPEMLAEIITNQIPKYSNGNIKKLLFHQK
# assay: GR agonist potency, MMTV-luciferase reporter in SW1353 cells
# condition label: human chondrosarcoma cell-line SW1353 stably transfected with MMTV-luciferase reporter; approx. 18 hours; data as percentage of 1 μM dexamethasone positive control
recorded endpoint: EC50 (nM)

[[record]]
compound = "C[C@]12C=CC(=O)C=C1CC[C@H]1[C@@H]3CC[C@](OC(=O)c4ccc(Sc5ccccc5)cc4)(C(=O)SCC#N)[C@@]3(C)C[C@H](O)[C@@]12F [Example 28]"
measured = 37.3

[[record]]
compound = "C[C@]12C=CC(=O)C=C1CC[C@H]1[C@@H]3CC[C@](OC(=O)c4ccc(Oc5ccccc5)c(O)c4)(C(=O)OCC#N)[C@@]3(C)C[C@H](O)[C@@]12F [Example 33]"
measured = 68.3

[[record]]
compound = "C[C@]12C=CC(=O)C=C1CC[C@H]1[C@@H]3CC[C@](OC(=O)c4ccc(OCc5ccccc5)cc4)(C(=O)CO)[C@@]3(C)C[C@H](O)[C@@]12F [Example 32]"
measured = 36


Just for reference, patent US20100303758A1 is where these values come from.
